Target: insulin (human, UniProt P01308)
Sequence (P01308 25-54, chain 1 of 2): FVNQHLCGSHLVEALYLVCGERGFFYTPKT
Sequence (P01308 90-110, chain 2 of 2): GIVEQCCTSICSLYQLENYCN
Assay: BLI
MEASURED_METRIC: pKd
Kindly note that pKd refers to -log10 of the concentration in mol/L and answer with the value alone.

Prompt line: Which pKd value belongs to nolinkLOV I267E, A271E "light" (antibody) MAQIQLVQSGPELKKPGETVKISCKASGYTFTDYSMHWVKQAPGKGLKWMDWINTETGVPTYADDFKGRFAFSLETSANTAYLQINDLKNEDTATYFCTRGYGKGYFDVWGAGTTVTVSSAKSTPPSVYPLAPGSGEFLATTLERIEKNFVITDPRLPDNPIIFASDSFLQLTEYSREEILGRNCRFLQGPETDRATVRKIRDAIDNQTEVTVQLINYTKSGKKFWNLFHLQPMRDQKGDVQYFIGVQLDGTEHVRDAAEREAVMLEKKTEEEIDEAAKELQIVLTQSPTIMSASLGERVTMTCTASSSVSSSYLHWYQQKPGSSPKLWIYSTSNLASGVPARFSGSGSGTSYSLTISSMEAEDAATYYCHQYHRSPPTFGAGTKLELKRADAAKL ?
Response line: 7.16
